Each item that follows carries a reported IC50.
# Tested on: human colon carcinoma HCT-116 cells
# ASSAY_PROTOCOL: MTT cell viability assay, HCT-116
# Type: cell-based
# CONDITIONS_USED: Homo sapiens, HCT-116, 48 h treatment, read-out: IC50 against the colon cancer cell line HCT 116
The figure you give is taken to be in nM; do not add the unit.

Past entries and their recorded results:
MOLECULE	IC50 / nM
COc1cccc2c1C(=O)c1c(O)c3c(c(O)c1C2=O)C[C@@](O)(C(=O)CO)C[C@@H]3O[C@H]1C[C@H](N)[C@H](O)[C@H](C)O1 [Doxorubicin, reference compound]	126
N#Cc1ccccc1N/N=C(/C=O)C(=O)c1ccc(C(=O)/C(C=O)=N/Nc2ccccc2C#N)cc1 [Compound 9b]	299
Cc1ccc(N/N=C(\C=O)C(=O)c2cccc(C(=O)/C(C=O)=N/Nc3ccc(C)cc3)n2)cc1 [Compound 11a]	277

We next turn to a different molecule, shown below.
Quick check: IC50 of N#Cc1ccccc1N/N=C(\C=O)C(=O)c1cccc(C(=O)/C(C=O)=N/Nc2ccccc2C#N)n1 [Compound 11b] ?
98

* * *

# Test system: human colon carcinoma HCT-116 cells
# ASSAY_PROTOCOL: MTT cell viability assay, HCT-116
# Type: cell-based
# CONDITIONS_USED: Homo sapiens, HCT-116, 48 h treatment, read-out: IC50 for HCT116 cancer cells
# Description: Human alveolar basal epithelial cell line (A-549) and human colon carcinoma (HCT-116), purchased from ATCC, USA, were used to evaluate the anticancer properties of the compounds. […] Cytotoxicity of tested samples was measured against different cancer cells using the MTT Cell Viability Assay. […] The extent of the reduction of MTT was quantified by measuring the absorbance at 570 nm. […]
EXPERIMENTAL_ENDPOINT: IC50 (nM)
Write the number in nM without appending the unit.

Any idea what its IC50 is? The molecule is N#Cc1ccccc1N/N=C(\C=O)C(=O)c1cccc(C(=O)/C(C=O)=N/Nc2ccccc2C#N)n1 [Compound 11b]
98
